experiment: Pharmacokinetics study of resveratrol, randomized double-blinded crossover, capsules and sachets; format: in vivo, human; conditions: both sexes, human, plasma, oral, 80 mg, human plasma, sachet, 80 mg trans-resveratrol per dose; read-out: Free Resveratrol Tmax
endpoint: Tmax (h)
Numbers only; they are read as h.

The reported Tmax of the compound Oc1ccc(/C=C/c2cc(O)cc(O)c2)cc1 [U-tRES, trans-resveratrol] was 1.21

* * *

Experiment: Pharmacokinetics study of resveratrol, randomized double-blinded crossover, capsules and sachets
Format: in vivo, human
Conditions: both sexes, oral; human plasma, sachet, 80 mg trans-resveratrol per dose; read-out: Free Resveratrol t1/2 (converted)
Experimental: The bioavailability study in human subjects was carried out in two phases. In the first phase, identical hard shell gelatin capsules of either the trans-resveratrol powder formulation obtained in example 1 (RF-20) or unformulated resveratrol (U-tRES) containing 80 mg of trans-resveratrol were provided. […] The blood samples were analysed by tandem mass spectrometry using QTRAP technology to detect, confirm and quantify ‘free’ resveratrol content in biomatrices.
endpoint: half-life (h)
Numbers only; they are read as h.

The reported half-life of the compound Oc1ccc(/C=C/c2cc(O)cc(O)c2)cc1 [U-tRES, trans-resveratrol] was 1.58

* * *

test: Pharmacokinetics of fisetin powder formulation in healthy human subjects; assay type: in vivo; settings: 500 mg; human plasma, single oral dose; normalized for the higher fisetin intake in UF; read-out: Fisetin AUC0-12
endpoint: AUC(0-t) (ng·h/mL)
Numbers only; they are read as ng·h/mL.

The reported AUC(0-t) of the compound O=c1c(O)c(-c2ccc(O)c(O)c2)oc2cc(O)ccc12 [UF, fisetin] was 12.7

* * *

test: Pharmacokinetics of fisetin powder formulation in healthy human subjects; type: in vivo; settings: 500 mg; human plasma, single oral dose; read-out: Fisetin t1/2 (converted)
endpoint: half-life (min)
Numbers only; they are read as min.

The reported half-life of the compound O=c1c(O)c(-c2ccc(O)c(O)c2)oc2cc(O)ccc12 was 68.4

* * *

test: Pharmacokinetics of fisetin powder formulation in healthy human subjects; format: in vivo; conditions: 500 mg; human plasma, single oral dose
endpoint: Tmax

The reported Tmax of the molecule O=c1c(O)c(-c2ccc(O)c(O)c2)oc2cc(O)ccc12 was 52.8 min

* * *

assay: Pharmacokinetics of fisetin powder formulation in healthy human subjects; assay type: in vivo; conditions: 500 mg; human plasma, single oral dose; normalized for the higher fisetin intake in UF
endpoint: Cmax

The reported Cmax of the molecule O=c1c(O)c(-c2ccc(O)c(O)c2)oc2cc(O)ccc12 was 9.97 ng/mL

* * *

test: Pharmacokinetics study of resveratrol, randomized double-blinded crossover, capsules and sachets; type: in vivo, human; settings: both sexes, human, plasma, oral, 80 mg, human plasma, capsule, 80 mg trans-resveratrol per dose; read-out: Free Resveratrol Tmax
endpoint: Tmax (h)
Numbers only; they are read as h.

The reported Tmax of the compound Oc1ccc(/C=C/c2cc(O)cc(O)c2)cc1 [U-tRES, trans-resveratrol] was 1.07
